Target: T1, A1 protein (mouse, residues 1-152, P104K C113S, used as wild type) (mouse)
T1 sequence (Q07440 1-152 with P104K C113S, looked up): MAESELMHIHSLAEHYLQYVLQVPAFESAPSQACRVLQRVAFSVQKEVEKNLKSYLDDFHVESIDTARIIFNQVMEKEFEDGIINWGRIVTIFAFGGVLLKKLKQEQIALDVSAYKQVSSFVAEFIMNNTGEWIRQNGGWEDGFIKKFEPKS
Assay: stopped-flow fluorescence kinetics; association; TAMRA-labelled peptide with folded partner at least 10-fold higher (pseudo-first-order); kon from the gradient of kobs versus partner concentration; 25 °C; 50 mM sodium phosphate, 0.05% (v/v) Tween 20, pH 7.0
Where no end group is shown, it is not given here. The star is where a group is joined. TAMRA = 5-carboxytetramethylrhodamine, CN(C)c1ccc2c(-c3ccc(C(=O)*)cc3C(=O)[O-])c3ccc(=[N+](C)C)cc-3oc2c1
reported-property: kon (M⁻¹ s⁻¹)

1. {TAMRA}-RVEEEGWAREIGAQLRRAADDLNAQYERRRQEEQH [PUMA E132G peptide (on the M144A wild type), TAMRA-labelled]
2. {TAMRA}-RVEEEEWAREIGGQLRRAADDLNAQYERRRQEEQH [PUMA A139G peptide (on the M144A wild type), TAMRA-labelled]
Ask: Recorded kon values differ for 1 and 2 ; which one is higher? Reply briefly: the label of your chosen item.
Reply: 1
(1: 8.4e+06 M⁻¹ s⁻¹, 2: 3.26e+06 M⁻¹ s⁻¹)

a. {TAMRA}-RVEEEEWAREIGAQLRAAADDLNAQYERRRQEEQH [PUMA R143A peptide (on the M144A wild type), TAMRA-labelled]
b. {TAMRA}-RVEEEEWAREIGAQARRAADDLNAQYERRRQEEQH [PUMA L141A peptide (on the M144A wild type), TAMRA-labelled]
Ask: Lowest kon? choose a or b Reply briefly: the label of your chosen item.
Reply: b
(b: 1.67e+06 M⁻¹ s⁻¹, a: 3.67e+06 M⁻¹ s⁻¹)
